# target-under-test: P. aeruginosa PqsA (Pseudomonas aeruginosa)
# Sequence (Q9I4X3 whole entry): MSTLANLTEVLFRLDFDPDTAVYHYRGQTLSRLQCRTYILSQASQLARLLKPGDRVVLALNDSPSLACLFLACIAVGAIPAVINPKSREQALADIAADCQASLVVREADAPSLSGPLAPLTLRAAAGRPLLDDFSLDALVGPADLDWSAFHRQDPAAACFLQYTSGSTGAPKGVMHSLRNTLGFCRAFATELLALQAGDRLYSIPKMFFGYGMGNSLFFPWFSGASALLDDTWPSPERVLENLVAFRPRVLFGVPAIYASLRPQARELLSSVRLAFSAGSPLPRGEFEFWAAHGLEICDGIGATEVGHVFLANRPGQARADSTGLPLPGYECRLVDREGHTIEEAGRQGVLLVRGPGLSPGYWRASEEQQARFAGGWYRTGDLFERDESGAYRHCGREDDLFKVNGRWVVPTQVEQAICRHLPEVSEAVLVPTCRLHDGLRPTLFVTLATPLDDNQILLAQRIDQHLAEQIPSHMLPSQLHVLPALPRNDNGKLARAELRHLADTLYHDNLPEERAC
# run-description: PqsA inhibition, spectrophotometric assay with recombinant PqsA (anthranilyl-CoA formation at 365 nm)
# Format: biochemical
# recorded-conditions: read-out: % inhibition at 10 μM of P. aeruginosa PqsA, 10 μM
inhibition at 10 µM of 40% or higher: label 1. Under 40%: label 0.

{"columns": ["compound", "target-under-test", "classification"],
 "data": [
  ["Nc1ccccc1C(=O)NS(=O)(=O)OC[C@H]1O[C@@H](n2cnc3c(N)nc(Nc4ccccc4)nc32)[C@H](O)[C@@H]1O [JI-C-2013-451]", "P. aeruginosa PqsA (Pseudomonas aeruginosa)", "label 1"],
  ["Nc1ccccc1C(=O)NS(=O)(=O)OC[C@@H]1CC[C@H](n2cnc3c(N)ncnc32)O1 [JI-C-2014-025]", "P. aeruginosa PqsA (Pseudomonas aeruginosa)", "label 1"],
  ["Nc1ccccc1C(=O)NS(=O)(=O)OC[C@H]1O[C@@H](n2cnc3c(N)nc(-c4ccccc4)nc32)[C@H](O)[C@@H]1O [JI-C-2013-454]", "P. aeruginosa PqsA (Pseudomonas aeruginosa)", "label 1"],
  ["Nc1cc(C(F)(F)F)ccc1C(=O)NS(=O)(=O)OC[C@H]1O[C@@H](n2cnc3c(N)ncnc32)[C@H](O)[C@@H]1O [DST-Pqs10]", "P. aeruginosa PqsA (Pseudomonas aeruginosa)", "label 0"],
  ["Nc1ccccc1C(=O)NS(=O)(=O)NC[C@H]1O[C@@H](n2cnc3c(N)ncnc32)[C@H](O)[C@@H]1O [DST-Pqs2]", "P. aeruginosa PqsA (Pseudomonas aeruginosa)", "label 1"],
  ["CNc1ncnc2c1ncn2[C@@H]1O[C@H](COS(=O)(=O)NC(=O)c2ccccc2N)[C@@H](O)[C@H]1O [DST-Pqs19]", "P. aeruginosa PqsA (Pseudomonas aeruginosa)", "label 0"],
  ["Nc1cc(F)ccc1C(=O)NS(=O)(=O)OC[C@H]1O[C@@H](n2cnc3c(N)ncnc32)[C@H](O)[C@@H]1O [DST-Pqs11]", "P. aeruginosa PqsA (Pseudomonas aeruginosa)", "label 1"],
  ["Nc1ncnc2c1ncn2[C@@H]1O[C@H](COS(=O)(=O)NC2(c3ccccc3F)COC2)[C@@H](O)[C@H]1O [DST-Pqs30]", "P. aeruginosa PqsA (Pseudomonas aeruginosa)", "label 0"],
  ["Nc1cccc(Cl)c1C(=O)NS(=O)(=O)OC[C@H]1O[C@@H](n2cnc3c(N)ncnc32)[C@H](O)[C@@H]1O [DST-Pqs16]", "P. aeruginosa PqsA (Pseudomonas aeruginosa)", "label 1"],
  ["Nc1ccccc1C1(NS(=O)(=O)OC[C@H]2O[C@@H](n3cnc4c(N)ncnc43)[C@H](O)[C@@H]2O)COC1 [DST-Pqs33]", "P. aeruginosa PqsA (Pseudomonas aeruginosa)", "label 0"],
  ["Nc1ncnc2c1ncn2[C@@H]1O[C@H](COS(=O)(=O)NC2(c3ccccc3O)COC2)[C@@H](O)[C@H]1O [DST-Pqs31]", "P. aeruginosa PqsA (Pseudomonas aeruginosa)", "label 0"],
  ["Nc1ncnc2c1ncn2[C@@H]1O[C@H](COS(=O)(=O)NC2(c3ccccc3)COC2)[C@@H](O)[C@H]1O [DST-Pqs32]", "P. aeruginosa PqsA (Pseudomonas aeruginosa)", "label 0"],
  ["Nc1ccccc1C(=O)NS(=O)(=O)OC[C@H]1O[C@@H](n2cnc3c(N)ncnc32)[C@H](N)[C@@H]1N [JI-C-2013-189]", "P. aeruginosa PqsA (Pseudomonas aeruginosa)", "label 1"],
  ["Nc1cc2ccccc2cc1C(=O)NS(=O)(=O)OC[C@H]1O[C@@H](n2cnc3c(N)ncnc32)[C@H](O)[C@@H]1O [DST-Pqs9]", "P. aeruginosa PqsA (Pseudomonas aeruginosa)", "label 0"],
  ["Nc1c(Cl)cccc1C(=O)NS(=O)(=O)OC[C@H]1O[C@@H](n2cnc3c(N)ncnc32)[C@H](O)[C@@H]1O [DST-Pqs13]", "P. aeruginosa PqsA (Pseudomonas aeruginosa)", "label 1"],
  ["Nc1ccccc1C(=O)NS(=O)(=O)OC[C@H]1O[C@@H](n2cnc3c(N)ncnc32)[C@H](O)[C@@H]1O [DST-Pqs1]", "P. aeruginosa PqsA (Pseudomonas aeruginosa)", "label 1"],
  ["Nc1ccccc1C(=O)NS(=O)(=O)OC[C@H]1O[C@@H](n2cnc3c(NC4CC4)ncnc32)[C@H](O)[C@@H]1O [DST-Pqs17]", "P. aeruginosa PqsA (Pseudomonas aeruginosa)", "label 0"],
  ["CN(C)c1ncnc2c1ncn2[C@@H]1O[C@H](COS(=O)(=O)NC(=O)c2ccccc2N)[C@@H](O)[C@H]1O [DST-Pqs18]", "P. aeruginosa PqsA (Pseudomonas aeruginosa)", "label 0"],
  ["NCc1ccccc1Nc1nc(N)c2ncn([C@@H]3O[C@H](COS(=O)(=O)NC(=O)c4ccccc4N)[C@@H](O)[C@H]3O)c2n1 [DST-Pqs27]", "P. aeruginosa PqsA (Pseudomonas aeruginosa)", "label 1"],
  ["Nc1ccccc1C(=O)NS(=O)(=O)OC[C@H]1O[C@@H](n2cnc3c(N)nc(C#Cc4ccccc4)nc32)[C@H](O)[C@@H]1O [JI-C-2013-456]", "P. aeruginosa PqsA (Pseudomonas aeruginosa)", "label 1"],
  ["Nc1cccc(F)c1C(=O)NS(=O)(=O)OC[C@H]1O[C@@H](n2cnc3c(N)ncnc32)[C@H](O)[C@@H]1O [DST-Pqs12]", "P. aeruginosa PqsA (Pseudomonas aeruginosa)", "label 1"],
  ["Nc1ccccc1C(=O)NS(=O)(=O)OC[C@H]1O[C@@H](n2cnc3c(N)ncnc32)C[C@@H]1O [JI-C-2014-008]", "P. aeruginosa PqsA (Pseudomonas aeruginosa)", "label 1"],
  ["Nc1ncnc2c1ncn2[C@@H]1O[C@H](COS(=O)(=O)NC(=O)c2cccnc2Cl)[C@@H](O)[C@H]1O [DST-Pqs8]", "P. aeruginosa PqsA (Pseudomonas aeruginosa)", "label 0"],
  ["Nc1ccc(Cl)cc1C(=O)NS(=O)(=O)OC[C@H]1O[C@@H](n2cnc3c(N)ncnc32)[C@H](O)[C@@H]1O [DST-Pqs15]", "P. aeruginosa PqsA (Pseudomonas aeruginosa)", "label 1"]
]}
